Source: patent US20060264369

system-tested: von Willebrand factor full length (Homo sapiens, UniProt P04275 SEQ:764-2813)
assay-details: filter; DPBS, 0.1 mg/mL BSA, RT
details: tags: Calbiochem 681300; label: 5'-32P
observation-type: pKd
Give bare numbers, as −log10 of the molar value.

The examples below pair each entry with its known result.
| binder | observation-type | recorded-measurement |
| --- | --- | --- |
| GGAGCCACACGACATTGGCGGGTTGTAATTACCACGCATGGCTCC (mixed, 2'-OH purines, deoxy pyrimidines) [rRdY minimer SEQ 189] | pKd | 9.00 |
| GGCCACACGACATTGGCGGGCGAGAGCCACGCATGGCC (mixed, 2'-OH purines, deoxy pyrimidines) [rRdY minimer SEQ 198] | pKd | 8.52 |
| GGAGCCACACGACATTGGCGGGCGAGAGCCACGCATGGCTCC (mixed, 2'-OH purines, deoxy pyrimidines) [rRdY minimer SEQ 192] | pKd | 8.70 |
| GGAGCCACGGGGTGGGTAGACGGCGGGTATGTGGCTCC (mixed, 2'-OH purines, deoxy pyrimidines) [rRdY minimer SEQ 180] | pKd | 9.00 |

Turning now to a further binder:
What value of measured pKd is listed for GGGACGGGGTGGGTAGACGGCGGGTATGTCCC (mixed, 2'-OH purines, deoxy pyrimidines) [rRdY minimer SEQ 183] ?
8.00
